System name: Isocitrate dehydrogenase [NADP] cytoplasmic (Homo sapiens, UniProt O75874, R132H)
Sequence (O75874 2-414 R132H limits assumed): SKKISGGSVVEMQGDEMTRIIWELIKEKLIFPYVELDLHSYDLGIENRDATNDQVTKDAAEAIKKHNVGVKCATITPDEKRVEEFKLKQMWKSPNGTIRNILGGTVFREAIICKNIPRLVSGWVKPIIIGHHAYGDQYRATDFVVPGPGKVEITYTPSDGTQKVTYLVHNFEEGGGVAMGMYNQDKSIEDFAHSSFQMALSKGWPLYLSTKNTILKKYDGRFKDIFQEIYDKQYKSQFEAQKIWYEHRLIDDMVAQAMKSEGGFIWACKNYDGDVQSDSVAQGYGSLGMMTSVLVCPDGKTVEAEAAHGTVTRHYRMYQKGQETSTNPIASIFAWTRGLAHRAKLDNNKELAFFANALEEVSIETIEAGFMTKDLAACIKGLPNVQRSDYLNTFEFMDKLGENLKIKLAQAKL
Test: Inhibition of IDH1 R132H mutant (unknown origin) using alpha-ketoglutarate as substrate after 60 mins by resazurin dye based fluorescence assay
Measured IC50 by item

# Smiles string, IC50
rows = [
    ("O=C1CC[C@@H](C(=O)N(c2cc(F)cc(F)c2)[C@@]2(C(=O)NC3CC(F)(F)C3)CCc3ccccc32)N1c1ccccn1", "> 10000 nM"),
]

IC50 value, target or system Isocitrate dehydrogenase [NADP] cytoplasmic (Homo sapiens, UniProt O75874, R132H), for COc1ccnc(N2C(=O)CC[C@H]2C(=O)N(c2cc(F)cc(F)c2)[C@@]2(C(=O)NC3CC(F)(F)C3)CCc3ccccc32)c1 : > 10000 nM

Per the reported Isocitrate dehydrogenase [NADP] cytoplasmic (Homo sapiens, UniProt O75874, R132H) data, N#Cc1ccnc(N2C(=O)CC[C@H]2C(=O)N(c2cccc(F)c2)[C@@]2(C(=O)NC3CCOCC3)CCc3ccccc32)c1 has IC50 of > 1000 nM

Tested on Isocitrate dehydrogenase [NADP] cytoplasmic (Homo sapiens, UniProt O75874, R132H): N#Cc1ccnc(N2C(=O)OC[C@H]2C(=O)N(c2cc(F)cc(F)c2)[C@@]2(C(=O)NC3CC(F)(F)C3)CCc3ccccc32)n1 . Observed IC50: 40 nM

The compound N#Cc1ccnc(N2C(=O)OC[C@H]2C(=O)N(c2cccc(F)c2)[C@@]2(C(=O)NC3CC(F)(F)C3)CCc3cccc(Cl)c32)c1 , tested on Isocitrate dehydrogenase [NADP] cytoplasmic (Homo sapiens, UniProt O75874, R132H), showed IC50 of 42 nM

Lab entry: Isocitrate dehydrogenase [NADP] cytoplasmic (Homo sapiens, UniProt O75874, R132H) assay, compound N#Cc1ccnc(N2C(=O)CC[C@H]2C(=O)N(c2cncc(F)c2)[C@@]2(C(=O)NC3CC(F)(F)C3)Cc3ccccc32)c1 , IC50 = 270 nM

* * *

Entries and their measured pIC50 follow.
System name: Isocitrate dehydrogenase [NADP] cytoplasmic (Homo sapiens, UniProt O75874, R132H)
Test: Inhibition of IDH1 R132H mutant (unknown origin) using alpha-ketoglutarate as substrate after 60 mins by resazurin dye based fluorescence assay
# log scale: pIC50 equals minus log10 of the concentration in mol/L

Below: 2 compounds and their reported pIC50.
# Smiles string, System name, pIC50
data = [
    ("N#Cc1ccnc(N2C(=O)CC[C@H]2C(=O)N(c2cccc(F)c2)[C@@]2(C(=O)NCC3CCC(F)(F)CC3)CCc3ccccc32)c1", "Isocitrate dehydrogenase [NADP] cytoplasmic (Homo sapiens, UniProt O75874, R132H)", 7.10),
    ("N#Cc1ccnc(N2C(=O)CC[C@H]2C(=O)N(c2cc(F)cc(F)c2)[C@@]2(C(=O)NC3CC(F)(F)C3)CCc3c(Cl)cccc32)c1", "Isocitrate dehydrogenase [NADP] cytoplasmic (Homo sapiens, UniProt O75874, R132H)", 7.28),
]

Switching to the query record.
response.value for N#Cc1ccnc(N2C(=O)OC[C@H]2C(=O)N(c2cccc(F)c2)[C@@]2(C(=O)NC3CC(F)(F)C3)CCc3ccccc32)c1 (field: pIC50) = 7.24

* * *

System name: Isocitrate dehydrogenase [NADP] cytoplasmic (Homo sapiens, UniProt O75874, R132C)
Sequence (O75874 2-414 R132C limits assumed): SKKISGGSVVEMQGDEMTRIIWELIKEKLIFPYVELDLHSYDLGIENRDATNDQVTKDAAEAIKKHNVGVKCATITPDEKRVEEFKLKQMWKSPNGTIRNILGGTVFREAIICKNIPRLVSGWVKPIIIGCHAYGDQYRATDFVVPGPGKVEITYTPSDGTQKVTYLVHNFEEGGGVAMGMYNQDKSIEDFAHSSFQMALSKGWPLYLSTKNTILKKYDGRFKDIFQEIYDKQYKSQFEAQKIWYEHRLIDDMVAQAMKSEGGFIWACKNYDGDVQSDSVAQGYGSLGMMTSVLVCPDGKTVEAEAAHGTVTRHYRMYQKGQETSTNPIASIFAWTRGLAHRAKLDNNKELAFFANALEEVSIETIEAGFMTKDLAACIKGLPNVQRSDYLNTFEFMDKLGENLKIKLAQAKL
Test: Inhibition of IDH1 R132C mutant in human HT1080 cells assessed as reduction in 2-hydroxyglutarate production after 48 hrs by LC-MS/MS analysis
pIC50: −log10 of the molar value.
Would you please tag the item met when its pIC50 is 8 or above, and not met when it is below?

Reference set, count: 3
# Smiles string, Answer label
measured = [
    ("N#Cc1ccnc(N2C(=O)CC[C@H]2C(=O)N(c2cccc(F)c2)[C@@]2(C(=O)NC3CCCCC3)CCc3ccccc32)c1", "met"),
    ("N#Cc1ccnc(N2C(=O)OC[C@H]2C(=O)N(c2cccc(F)c2)[C@@]2(C(=O)NC3CC(F)(F)C3)CCc3cccc(Cl)c32)n1", "not met"),
    ("N#Cc1ccnc(N2C(=O)OC[C@H]2C(=O)N(c2cccc(F)c2)[C@@]2(C(=O)NC3CC(F)(F)C3)CCc3ccccc32)c1", "not met"),
]

For this compound, is measured pIC50 8 or higher? N#Cc1ccnc(N2C(=O)CC[C@H]2C(=O)N(c2cccc(F)c2)[C@@]2(C(=O)NC3CC(F)(F)C3)CCc3cccc(F)c32)c1
not met

For this compound, is measured pIC50 8 or higher? N#Cc1ccnc(N2C(=O)CC[C@H]2C(=O)N(c2cc(F)cc(F)c2)[C@@]2(C(=O)NC3CC(F)(F)C3)CCc3ccccc32)c1
met

Hi team, for N#Cc1ccnc(N2C(=O)CC[C@H]2C(=O)N(c2cccc(F)c2)[C@@]2(C(=O)NC3CC(F)(F)C3)CCc3ccccc32)c1 , is the recorded pIC50 at or above 8?
not met

I'd appreciate it if you could say whether N#Cc1ccnc(N2C(=O)CC[C@H]2C(=O)N(c2cncc(F)c2)[C@@]2(C(=O)NC3CC(F)(F)C3)CCc3ccccc32)c1 has pIC50 at least equal to 8.
not met

Test whether the compound N#Cc1ccnc(N2C(=O)CC[C@H]2C(=O)N(c2cccc(F)c2)[C@@]2(C(=O)NC3CC(F)(F)C3)CCc3c(F)cccc32)c1 records pIC50 of 8 or higher.
not met

* * *

System name: Isocitrate dehydrogenase [NADP] cytoplasmic (Homo sapiens, UniProt O75874, R132H)
Test: Inhibition of IDH1 R132H mutant (unknown origin) using alpha-ketoglutarate as substrate after 60 mins by resazurin dye based fluorescence assay
Experimental readout: pIC50
Scale note: pIC50 = -log10(concentration in M).

Observe how each entry below is paired with its result.
# Smiles string, pIC50
rows = [
    ("N#Cc1ccnc(N2C(=O)CC[C@H]2C(=O)N(c2cccc(F)c2)[C@@]2(C(=O)NC3CCCCC3)CCc3ccccc32)c1", 7.43),
    ("N#Cc1ccnc(N2C(=O)OC[C@H]2C(=O)N(c2cc(F)cc(F)c2)[C@@]2(C(=O)NC3CC(F)(F)C3)CCc3ccccc32)c1", 7.27),
    ("N#Cc1ccnc(N2C(=O)CC[C@H]2C(=O)N(c2cccc(F)c2)[C@@]2(C(=O)NC3CC(F)(F)C3)CCc3c(Cl)cccc32)c1", 7.17),
    ("N#Cc1ccnc(N2C(=O)OC[C@H]2C(=O)N(c2cccc(F)c2)[C@@]2(C(=O)NC3CC(F)(F)C3)CCc3cccc(Cl)c32)n1", 8.25),
    ("N#Cc1ccnc(N2C(=O)CC[C@H]2C(=O)N(c2cc(F)cc(F)c2)[C@@]2(C(=O)NC3CC(F)(F)C3)CCc3ccccc32)n1", 7.66),
]

The value of pIC50 recorded for N#Cc1ccnc(N2C(=O)CC[C@H]2C(=O)N(c2cc(F)cc(F)c2)[C@@]2(C(=O)NC3CC(F)(F)C3)CCc3cccc(Cl)c32)c1 when tested on Isocitrate dehydrogenase [NADP] cytoplasmic (Homo sapiens, UniProt O75874, R132H) reads 6.74

Form field pIC50 for item O=C1CC[C@@H](C(=O)N(c2cc(F)cc(F)c2)[C@@]2(C(=O)NC3CC(F)(F)C3)CCc3ccccc32)N1c1cnccn1 on Isocitrate dehydrogenase [NADP] cytoplasmic (Homo sapiens, UniProt O75874, R132H): 6.89

Isocitrate dehydrogenase [NADP] cytoplasmic (Homo sapiens, UniProt O75874, R132H) assay, molecule N#Cc1ccnc(N2C(=O)CC[C@H]2C(=O)N(c2cc(F)cc(F)c2)[C@@]2(C(=O)NC3CC(F)(F)C3)CCc3ccccc32)c1 , recorded pIC50 = 7.35

I looked up N#Cc1cccc(N2C(=O)CC[C@H]2C(=O)N(c2cc(F)cc(F)c2)[C@@]2(C(=O)NC3CC(F)(F)C3)CCc3ccccc32)c1 and its pIC50 for Isocitrate dehydrogenase [NADP] cytoplasmic (Homo sapiens, UniProt O75874, R132H) was 5.58
